- Tested on: human red blood cells (HRBCs)
- Assay Notes: Hemolytic assay on human red blood cells
- Type: cell-based
- Run Parameters: human red blood cells 5% (v/v) in PBS, peptide 320 μg/mL (highest dose), 37 °C 1 h, OD 540 nm, PBS = 0%, 1% Triton X-100 = 100%, mean of three independent experiments
Ends that are not written are not given here.
Observation Type: HRBC Hemolysis (hemolysis rate at 320 μg/mL)

Solved cases below.
- LKLLGIVKKVLGAI-NH2 [EMP-EM2]: 8%
- INWKKIKSLIKAAMS-NH2 [Mastoparan-V2]: 15%
- IDWLKLRVISVIDL-NH2 [Polybia-MP IV]: 0%
- INLLKIAKGIIKSL-NH2 [EMP-AF]: 100%
- INWKKIFQKVKNLV-NH2 [PDD-A]: 30%

Look at each substance and report its HRBC Hemolysis (hemolysis rate at 320 μg/mL).
1. FDLLGLVKKVASAL-NH2 [EpVP2a]
2. INWKKMAATALKMI-NH2 [Parapolybia-MP]
3. INLFGFAALVKKFL-NH2 [Mastoparan-T4]

Return:
1. 79%
2. 32%
3. 100%

###

Field: pEC50. Provide a value for each of the substances that follow.
- Test system: human red blood cells (HRBCs)
- Assay Notes: Hemolytic assay on human red blood cells
- Format: cell-based
- Run Parameters: human red blood cells 5% (v/v) in PBS, peptide 10-320 μg/mL twofold dilutions, 37 °C 1 h, OD 540 nm, 1% Triton X-100 = 100%, four-parameter logistic fit of mean of three independent experiments; '-' = hemolytic activity too low to calculate the EC50; read-out: HRBC EC50 (hemolytic activity)
Ends that are not written are not given here.
Answers are plain numbers, as −log10 of the molar value.

Solved cases below.
* INLKVFAALVKKLL-NH2 [Mastoparan-T2] | 4.93
* IDWKKLLDAAKQIL-NH2 [Polybia-MP I] | 3.75
* LNLKGLFKKVASLLT [Eumenitin-F] | 3.80
* INWLKLGKAIIDAL-NH2 [Agelaia-MPI] | 5.43
* INWKKIFQKVKNLV-NH2 [PDD-A] | 3.45
* INWKKIASIGKEVLKAL-NH2 [PMM2] | 4.37

Enquiry: What does the data say about its pEC50? Entry: INWLKLGKQILGAL-NH2 [Pm-R3]
Return: 4.49

###

- System: human red blood cells (HRBCs)
- Assay Notes: Hemolytic assay on human red blood cells
- Type: cell-based
- Run Parameters: human red blood cells 5% (v/v) in PBS, peptide 10-320 μg/mL twofold dilutions, 37 °C 1 h, OD 540 nm, 1% Triton X-100 = 100%, four-parameter logistic fit of mean of three independent experiments; '-' = hemolytic activity too low to calculate the EC50; read-out: HRBC EC50 (hemolytic activity)
Ends that are not written are not given here.
Field: pEC50. Provide a value for each of the substances that follow.
Numbers only, as −log10 of the molar value.

Solved cases below.
* INLRGFAALVKKFL-NH2 [Mastoparan-T3] | 3.95
* INWLKLGKAVIDAL-NH2 [Protopolybia-MPIII] | 4.21
* FDVMGIIKKIASAL-NH2 [EMP-EF] | 3.90

Look at each substance and report its pEC50.
1. INWAKLGKLALQAL-NH2 [Ropalidia-MP]
2. INLFGFAALVKKFL-NH2 [Mastoparan-T4]
3. FDLLGLVKSVVSAL-NH2 [EpVP2b]
4. INWKAILQRIKKML-NH2 [Agelaia-MPII]
5. INWLKLGKKILGAL-NH2 [PDD-B]
6. INWLKLGKKMMSAL-NH2 [MP]

Return:
4.37
4.55
4.47
4.35
4.31
3.91

Look at each substance and report its pEC50.
1. INWLKLGKMVIDAL-NH2 [Polybia-MP II]
2. INLLKIAKGIIKSL-NH2 [EMP-AF]
3. IDWLKLGKMVMDVL-NH2 [Polybia-MP III]
4. FDLLGLVKKVASAL-NH2 [EpVP2a]

Return:
4.63
3.96
4.41
3.82

###

- Tested on: human red blood cells (HRBCs)
- Assay Notes: Hemolytic assay on human red blood cells
- Format: cell-based
- Run Parameters: human red blood cells 5% (v/v) in PBS, peptide 320 μg/mL (highest dose), 37 °C 1 h, OD 540 nm, PBS = 0%, 1% Triton X-100 = 100%, mean of three independent experiments
Ends that are not written are not given here.
Field: HRBC Hemolysis (hemolysis rate at 320 μg/mL). Provide a value for each of the substances that follow.
One number for each entry, in %.

Solved cases below.
• INWKGIAAMAKKLL-NH2 [Mastoparan-X(V)] = 29
• FDLLGLVKSVVSAL-NH2 [EpVP2b] = 100

// next entry
Enquiry: What does the data say about its HRBC Hemolysis (hemolysis rate at 320 μg/mL)? Entry: INWKKIASIGKEVLKAL-NH2 [PMM2]
Return: 100

###

- Tested on: human red blood cells (HRBCs)
- Assay Notes: Hemolytic assay on human red blood cells
- Assay type: cell-based
- Run Parameters: human red blood cells 5% (v/v) in PBS, peptide 320 μg/mL (highest dose), 37 °C 1 h, OD 540 nm, PBS = 0%, 1% Triton X-100 = 100%, mean of three independent experiments
Ends that are not written are not given here.
Observation Type: HRBC Hemolysis (hemolysis rate at 320 μg/mL) (%)
Answers are plain numbers, in %.

Solved cases below.
• LNLKGIFKKVASLLT-OH [Eumenitin] = 6
• INWLKLGKKVSAIL-NH2 [Protopolybia-MP I] = 5
• IDWKKLLDAAKQIL-NH2 [Polybia-MP I] = 56
• IKWKAILDAVKKVL-NH2 [Mastoparan-A] = 7

Look at each substance and report its HRBC Hemolysis (hemolysis rate at 320 μg/mL).
1. INWKALLDAAKKVL-NH2 [Protonectarina-MP]
2. INLKAIAALAKKLL-NH2 [Mastoparan-M]
3. INLKAIAALVKKVL-NH2 [HR1]
4. GRILSFIKGLAEHL-NH2 [EMP-OD]
5. INLRGFAALVKKFL-NH2 [Mastoparan-T3]
6. INLKALLAVAKKIL-NH2 [Mastoparan-C]
7. INWHDIAIKNIDAL-NH2 [Polybia-MP V]

Return:
100
18
56
2
100
100
0

Look at each substance and report its HRBC Hemolysis (hemolysis rate at 320 μg/mL).
1. INWLKLGKKILGAI-NH2 [Pm-R1]
2. FDVMGIIKKIASAL-NH2 [EMP-EF]
3. INLKGLIKKVASLLT-OH [EpVP1]
4. KDLHTVVSAILQAL-NH2 [OdVP3a]

Return:
1: 100; 2: 100; 3: 9; 4: 24

Look at each substance and report its HRBC Hemolysis (hemolysis rate at 320 μg/mL).
1. INWKKIKSIIKAAMN-NH2 [Mastoparan-V1]
2. INWAKLGKLALQAL-NH2 [Ropalidia-MP]
3. LNLKGLFKKVASLLT [Eumenitin-F]

Return:
[9, 100, 67]

Enquiry: What does the data say about its HRBC Hemolysis (hemolysis rate at 320 μg/mL)? Entry: LKLMGIVKKVLGAL-NH2 [EMP-EM1]
Return: 21

###

- System: human red blood cells (HRBCs)
- Assay Notes: Hemolytic assay on human red blood cells
- Type: cell-based
- Run Parameters: human red blood cells 5% (v/v) in PBS, peptide 10-320 μg/mL twofold dilutions, 37 °C 1 h, OD 540 nm, 1% Triton X-100 = 100%, four-parameter logistic fit of mean of three independent experiments; '-' = hemolytic activity too low to calculate the EC50; read-out: HRBC EC50 (hemolytic activity)
pEC50: −log10 of the molar value. Ends that are not written are not given here.
Field: pEC50. Provide a value for each of the substances that follow.

• KDLHTVVSAILQAL-NH2 [OdVP3a] = < 3.40
• INLKAIAALAKKLL-NH2 [Mastoparan-M] = < 3.40
• LNLKGIFKKVASLLT-OH [Eumenitin] = < 3.40
• INWKKIAEVGGKILSSL-NH2 [Dominulin A] = ≤ 3.40
• IDWLKLRVISVIDL-NH2 [Polybia-MP IV] = < 3.40

// next entry
Enquiry: What does the data say about its pEC50? Entry: INWHDIAIKNIDAL-NH2 [Polybia-MP V]
Return: < 3.40

###

Field: pEC50. Provide a value for each of the substances that follow.
- Test system: human red blood cells (HRBCs)
- Assay Notes: Hemolytic assay on human red blood cells
- Format: cell-based
- Run Parameters: human red blood cells 5% (v/v) in PBS, peptide 10-320 μg/mL twofold dilutions, 37 °C 1 h, OD 540 nm, 1% Triton X-100 = 100%, four-parameter logistic fit of mean of three independent experiments; '-' = hemolytic activity too low to calculate the EC50; read-out: HRBC EC50 (hemolytic activity)
pEC50: −log10 of the molar value. Ends that are not written are not given here.

• LKLMGIVKKVLGAL-NH2 [EMP-EM1] = < 3.40
• INMKASAAVAKKLL-NH2 [MP-VB1] = < 3.40
• INLKAIAAFAKKLL-NH2 [Mastoparan-T(D)] = < 3.40

// next entry
Enquiry: Write down the reported pEC50 of INWKGIAAMKKLL-NH2 [Mastoparan-like peptide 12b] , test system: human red blood cells (HRBCs).
Return: ≤ 3.40

# credit: paper PMC10611374
